Test system: RAK2683 yeast strain
Test: Investigation of nitrogen source used singly in MM culture medium instead of ammonium sulfate (Table 4)
Type: cell-based, Saccharomyces cerevisiae
Conditions: Table 4 conditions
QUANTITY: proliferation when added singly as nitrogen source

Solved entries:
{"MOLECULE": "O=C(O)[C@@H]1CCCN1", "OBSERVED": "favorable proliferation"}
{"MOLECULE": "C[C@@H](O)[C@H](N)C(=O)O", "OBSERVED": "almost no proliferation"}
{"MOLECULE": "NCC(=O)O", "OBSERVED": "almost no proliferation"}
{"MOLECULE": "Cl.NCCCC[C@H](N)C(=O)O [Lysine, L-Lysine hydrochloride]", "OBSERVED": "almost no proliferation"}

Working through the 3 molecules below one at a time, give proliferation when added singly as nitrogen source for each.
1. N[C@@H](CCC(=O)[O-])C(=O)[O-].O.[Na+].[Na+] [Glutamic acid, L-Glutamic acid sodium salt hydrate]
2. Cl.N[C@@H](Cc1c[nH]cn1)C(=O)O.O [Histidine, L-Histidine hydrochloride hydrate]
3. N[C@@H](CC(=O)[O-])C(=O)[O-].O.[Na+].[Na+] [Aspartic acid, L-Aspartic acid sodium salt monohydrate]

Output line:
1. favorable proliferation
2. almost no proliferation
3. favorable proliferation

---

Test system: RAK3599 strain
Experiment: Vitamin and FeCl3 concentration in AKD′ culture medium (FIGS. 22 to 28)
Assay type: cell-based, Saccharomyces cerevisiae
Details: AKD′ culture medium
Structures can show the parent of a compound that is named as a salt.
QUANTITY: preferred concentration

{"MOLECULE": "Cc1ncc(CO)c(CO)c1O.Cl [pyridoxine, Pyridoxine hydrochloride]", "preferred concentration": "around 400 μg/L"}
{"MOLECULE": "Cc1ncc(C[n+]2csc(CCO)c2C)c(N)n1 [thiamine, Thiamine hydrochloride]", "preferred concentration": "around 400 μg/L"}
{"MOLECULE": "O=C(O)c1cccnc1 [nicotinic acid]", "preferred concentration": "around 4000 μg/L"}
{"MOLECULE": "[Cl][Fe]([Cl])[Cl] [FeCl3, Anhydrous ferric (III) chloride]", "preferred concentration": "around 4000 μg/L"}

Okay, now this molecule:
Input line: Give reported preferred concentration value for CC(C)(CO)[C@@H](O)C(=O)NCCC(=O)O [pantothenic acid]
Output line: around 4000 μg/L
